experimental.system: Voltage-gated inwardly rectifying potassium channel KCNH2 (Homo sapiens)
experiment.description: qHTS Assay for Small Molecule Inhibitors of the Human hERG Channel Activity (AID 588834);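 also: lower thallium flux fluorescence means stronger hERG block; nearly all actives have a fitted effect of over 50% in size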
assay.setup: U2OS BacMam hERG, FluxOR thallium flux fluorescence; series mostly up to 46.1 µM
Inconclusive results are not listed. The source made the active and inactive calls. Calls follow the shape of the dose curve; as a rule, active = well fitted inhibition curve with a large enough effect; inconclusive = small, poorly fitted or top-dose-only effect; inactive = flat fitted curve, though single readings scatter.
Hello, when you answer, please use one of the following outcomes: yes (active), no (inactive)

Cn1cnc(CCN)c1	no
CCCCCCCCc1ccc(O)cc1	no
c1ccc(CCCN2CCN(CCOC(c3ccccc3)c3ccccc3)CC2)cc1	yes
Oc1ccc2c3c1O[C@H]1c4[nH]c5c(c4C[C@@]4(O)[C@@H](C2)N(CC2CC2)CC[C@]314)C[C@@]1(O)[C@H]2Cc3ccc(O)c4c3[C@@]1(CCN2CC1CC1)[C@H]5O4	no
CC(=O)NCCc1c[nH]c2ccccc12	no

Lab log entry: "C[C@@H](N)Cc1cnc[nH]1" — outcome as called in the assay?
no

Lab log entry: "CC[C@@H]1C(=O)OC[C@@H]1Cc1cncn1C" — outcome as called in the assay?
no

Lab log entry: CC(=O)[C@H]1CCC2C3CC[C@H]4C[C@H](O)CC[C@]4(C)C3CC[C@@]21C (stereo not given in full) — outcome as called in the assay?
no

Lab log entry: "CCCN(CCC)[C@@H]1CCc2ccc(O)cc2C1" — outcome as called in the assay?
yes

Lab log entry: "C[C@@H]1O[C@H](C[N+](C)(C)C)C[C@H]1O" — outcome as called in the assay?
no

Lab log entry: "CNCCc1c[nH]c2ccc(O)cc12" — outcome as called in the assay?
no
